- test-target: 15-PGDH/HPGD (Homo sapiens, UniProt P15428)
- Construct: purchased R&D System 5660-DH
- Sequence (P15428 whole entry): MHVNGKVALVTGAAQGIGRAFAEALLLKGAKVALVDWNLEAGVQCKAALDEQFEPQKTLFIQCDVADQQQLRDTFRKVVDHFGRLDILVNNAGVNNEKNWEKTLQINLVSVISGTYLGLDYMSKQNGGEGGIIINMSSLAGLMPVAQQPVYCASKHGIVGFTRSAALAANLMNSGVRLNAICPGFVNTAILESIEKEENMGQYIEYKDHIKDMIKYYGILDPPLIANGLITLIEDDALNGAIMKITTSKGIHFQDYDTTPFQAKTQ
- test: hPGDH inhibitor screening biochemical assay
- experimental-parameters: 10 nM enzyme, 15 μM PGE2, 0.25 mM NAD, fluorescence ex/em 340/485 nm
pIC50: −log10 of the molar value.
Each item that follows carries a reported pIC50.

Field: example entries. Status: answers known.
1. O=C(O)c1ccc(-n2cc3cc(C(=O)N4CCC(F)(F)CC4)ccc3n2)cc1 [Compound D-4]: 6.00 to 7.00
2. CC1(C)CCN(C(=O)c2cnc3c(cnn3-c3ccc(-c4nnc[nH]4)cc3)c2)C1 [Compound C-51]: 6.00 to 7.00

Query compound follows.
Quick note, pIC50 for O=C(Nc1cccc(-n2ncc3cc(C(=O)N4CCC(F)(F)CC4)cnc32)c1)C1CC1 [Compound C-49] landed at 6.00 to 7.00
